TESTED_ON: CCR4 (Homo sapiens)
Construct: host or cells: CHO-K1
Sequence (P51679 whole entry): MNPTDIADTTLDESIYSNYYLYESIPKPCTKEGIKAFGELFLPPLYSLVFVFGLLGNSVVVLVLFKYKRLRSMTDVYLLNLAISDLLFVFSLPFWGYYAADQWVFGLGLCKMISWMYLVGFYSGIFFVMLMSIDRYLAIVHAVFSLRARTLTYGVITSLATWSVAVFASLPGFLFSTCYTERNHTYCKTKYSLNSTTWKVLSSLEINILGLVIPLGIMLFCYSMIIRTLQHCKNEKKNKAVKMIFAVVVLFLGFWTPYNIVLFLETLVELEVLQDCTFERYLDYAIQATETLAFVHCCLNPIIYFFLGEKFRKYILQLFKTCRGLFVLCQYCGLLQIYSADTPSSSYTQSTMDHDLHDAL
ASSAY_OVERVIEW: PathHunter eXpress CCR4 CHO-K1 β-Arrestin GPCR Assay, agonist format
Assay type: cell-based
STUDY_CONDITIONS: high concentration, 50 uM
PARAMETER_MEASURED: Raw Data

Request: Tell me measured Raw Data for ACLNGCRNTNSQCA [24-11-00-N001, bicyclic peptide ligand, TATA scaffold, from CCR4 cell-based selection] please.
Result: 9993

Request: Output measured Raw Data for this item: ACQLTCLTPARQPGCA [24-14-00-N001, bicyclic peptide ligand, TATA scaffold, from CCR4 cell-based selection]
Result: 13314

Request: Determine its reported Raw Data: ACLSCARHGNQCA [24-12-00-N001, bicyclic peptide ligand, TATA scaffold, from CCR4 cell-based selection]
Result: 12457

Request: Given ACQTLCNTAEDIRCA [24-16-00-N001, bicyclic peptide ligand, TBMB scaffold, from CCR4 cell-based selection] , respond with its Raw Data.
Result: 13817
